Tested on: HL-60
Test: NCI tumour cell line growth inhibition, 48 h
Calls of active or inactive are those of the source. Cut-off read from the data, not from the text of the source: active = GI50 up to about 1.1 µM and inactive = higher.
Form entry, call: pick from active, inactive

Solved cases below.
- compound: "Cn1cccc1-c1ccc(-c2ccc(CO)[se]2)[se]1"
  class assignment: "inactive"
- compound: "N/N=C1\\CCCc2c1no[n+]2[O-]"
  class assignment: "inactive"
- compound: "COC(=O)C1(Cc2ccccc2)Cc2ccccc2C1O (stereo not drawn)"
  class assignment: "inactive"
- compound: "CC(=O)CCn1ncc(Cl)c(Cl)c1=O"
  class assignment: "inactive"
- compound: "CCN(CC)CCN1c2ccccc2Sc2ccc3ccccc3c21"
  class assignment: "inactive"
- compound: "C=CCCCCCCCC(O)C1C[C@H](O)C(CCCCC)O1 (stereo partly drawn)"
  class assignment: "inactive"
- compound: "CCOC(=O)C1(c2ccccc2)CCCNCC1 (stereo not drawn)"
  class assignment: "inactive"
- compound: "CC12CCC3[C@@H](CC3(C)C)C(O)(CCC1=O)C2 (stereo partly drawn)"
  class assignment: "inactive"
- compound: "CC(=O)OCC1OC(c2nnc(C)o2)=CC(OC(C)=O)C1OC(C)=O (stereo not drawn)"
  class assignment: "inactive"
- compound: "Cn1cc(S(=O)(=O)NC(=O)Nc2ccc(Cl)cc2)c(=O)c2ccc(F)cc21"
  class assignment: "inactive"

Check the results log: what was the call for `O=C(Nc1ccccc1Cl)c1cc(S(=O)(=O)Nc2n[nH]c(=O)n2-c2ccccc2)c(S)cc1Cl` ?
inactive

Short answer needed: outcome of this test for `Clc1cc(Cl)cc(/C=N/C23CC4CC(CC(C4)C2)C3)c1` ?
inactive

Would you mind telling me which call this test gave `c1ccc2c(c1)c1c(n2CCOCCCN2CCCCC2)CCCC1` ?
inactive

Reference for the values: ChEMBL document CHEMBL1201862
